Test system: CCRIS mutagenicity, Ames/micronucleus/aberration tests
Experimental Details: CCRIS mutagenicity studies
Condition Label: Test System: AMES SALMONELLA TYPHIMURIUM; Strain/Indicator: TA100; Metabolic Activation: HAMSTER, LIVER, S-9, AROCLOR 1254 (30%); Method: PREINCUBATION
Activity calls are given as the source filed them. The rule behind the calls is not given here.
Return exactly one item of YES = active, NO = inactive

In: For CN(C)c1ccc(N=Nc2ccccc2)cc1 , which call appears in the assay record?
Out: YES

In: What call does the record list for Cc1ccco1 ?
Out: NO

In: Please state the recorded outcome for this compound: Cn1cnc([N+](=O)[O-])c1Sc1ncnc2nc[nH]c12
Out: YES
